Target: Tyrosinase (Agaricus bisporus)
Sequence (O42713 whole entry): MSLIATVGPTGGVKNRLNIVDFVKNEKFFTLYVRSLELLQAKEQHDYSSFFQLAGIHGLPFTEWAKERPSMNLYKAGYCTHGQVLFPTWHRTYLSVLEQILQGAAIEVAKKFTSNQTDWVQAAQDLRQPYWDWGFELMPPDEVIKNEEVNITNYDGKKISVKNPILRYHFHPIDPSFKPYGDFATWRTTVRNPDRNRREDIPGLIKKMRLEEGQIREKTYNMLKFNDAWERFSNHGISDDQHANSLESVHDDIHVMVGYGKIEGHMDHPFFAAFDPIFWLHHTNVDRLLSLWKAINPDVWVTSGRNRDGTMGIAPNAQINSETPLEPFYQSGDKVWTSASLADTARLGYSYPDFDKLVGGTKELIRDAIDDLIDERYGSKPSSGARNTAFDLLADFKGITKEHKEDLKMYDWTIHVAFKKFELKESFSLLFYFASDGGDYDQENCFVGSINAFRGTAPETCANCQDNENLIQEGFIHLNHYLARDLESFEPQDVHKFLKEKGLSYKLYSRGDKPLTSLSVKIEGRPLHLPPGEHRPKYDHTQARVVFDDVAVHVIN
Measurement kind: IC50 (µM)

Cc1ccccc1NC(N)=S    0.84
Cc1cccc(NC(N)=S)c1    0.6

I = CC(C)(C)c1ccc(NC(N)=S)cc1
II = CCc1ccc(NC(N)=S)cc1
III = NC(=S)NCc1ccccc1
INPUT: Sort the 3 compounds by IC50; largest first, smallest last. Use the labels to give the ranking in the order requested.
OUTPUT: III, I, II

These measurements were taken from ChEMBL document CHEMBL1909585.
